This collection of values is drawn from ChEMBL document CHEMBL5260813.

Biological target: Tyrosine-protein kinase SYK (Homo sapiens, UniProt P43405)
Experiment: Inhibition of SYK in human Ramos cells assessed as reduction in anti IgM-induced phosphorylation of BLNK by flow cytometry assay
Format: cell-based
READOUT: IC50 (µM)

> print(dat)
                                   compound  readout  units.text  observed.result
1  NC(=O)c1nnc(N[C@@H]2CCCC[C@@H]2N)nc1Nc1cccc2[nH]ncc12     IC50          µM            0.014
2  NC(=O)c1nnc(N[C@@H]2CCCC[C@@H]2N)nc1Nc1cccc2c(Cl)c[nH]c12     IC50          µM            0.014
3  N#Cc1c[nH]c2c(Nc3nc(N[C@@H]4CCCCC4N)nnc3C(N)=O)cccc12 (single isomer, unassigned)     IC50          µM            0.014
